Biological target: PI3Kα H1047R (T47D cells) (Homo sapiens, UniProt P42336, H1047R)
Construct: endogenous in cells; host or cells: T47D cells
Sequence (P42336 whole entry H1047R): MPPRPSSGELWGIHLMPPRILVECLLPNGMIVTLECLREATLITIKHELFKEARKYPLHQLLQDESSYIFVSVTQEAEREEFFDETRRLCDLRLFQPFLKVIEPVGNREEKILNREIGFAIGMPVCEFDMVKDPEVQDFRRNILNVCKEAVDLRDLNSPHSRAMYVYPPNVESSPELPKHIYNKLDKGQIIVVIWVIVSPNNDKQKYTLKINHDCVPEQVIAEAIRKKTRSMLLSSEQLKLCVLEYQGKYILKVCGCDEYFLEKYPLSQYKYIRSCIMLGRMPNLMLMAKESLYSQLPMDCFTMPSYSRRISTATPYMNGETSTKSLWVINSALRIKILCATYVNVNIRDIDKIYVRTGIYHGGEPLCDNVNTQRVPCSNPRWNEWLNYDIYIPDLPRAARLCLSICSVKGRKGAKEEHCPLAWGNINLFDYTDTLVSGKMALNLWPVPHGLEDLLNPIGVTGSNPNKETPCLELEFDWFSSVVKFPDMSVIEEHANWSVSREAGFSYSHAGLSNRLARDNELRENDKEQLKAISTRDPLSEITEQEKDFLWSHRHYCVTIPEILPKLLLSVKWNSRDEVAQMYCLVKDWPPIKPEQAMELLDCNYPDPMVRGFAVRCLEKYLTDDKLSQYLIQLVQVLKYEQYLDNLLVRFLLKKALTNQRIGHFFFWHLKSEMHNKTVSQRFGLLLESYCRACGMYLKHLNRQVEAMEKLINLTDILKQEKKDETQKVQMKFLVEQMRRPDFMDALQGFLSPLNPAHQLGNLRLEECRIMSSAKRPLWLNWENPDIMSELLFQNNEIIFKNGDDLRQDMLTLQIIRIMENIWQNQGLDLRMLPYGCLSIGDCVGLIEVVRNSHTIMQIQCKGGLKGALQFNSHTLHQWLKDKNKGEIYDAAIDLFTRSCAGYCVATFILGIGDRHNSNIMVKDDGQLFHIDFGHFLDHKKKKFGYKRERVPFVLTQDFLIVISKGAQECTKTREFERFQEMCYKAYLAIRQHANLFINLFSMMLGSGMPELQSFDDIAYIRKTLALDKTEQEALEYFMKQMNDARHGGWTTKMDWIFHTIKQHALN
Sequence (P27986 whole entry partner): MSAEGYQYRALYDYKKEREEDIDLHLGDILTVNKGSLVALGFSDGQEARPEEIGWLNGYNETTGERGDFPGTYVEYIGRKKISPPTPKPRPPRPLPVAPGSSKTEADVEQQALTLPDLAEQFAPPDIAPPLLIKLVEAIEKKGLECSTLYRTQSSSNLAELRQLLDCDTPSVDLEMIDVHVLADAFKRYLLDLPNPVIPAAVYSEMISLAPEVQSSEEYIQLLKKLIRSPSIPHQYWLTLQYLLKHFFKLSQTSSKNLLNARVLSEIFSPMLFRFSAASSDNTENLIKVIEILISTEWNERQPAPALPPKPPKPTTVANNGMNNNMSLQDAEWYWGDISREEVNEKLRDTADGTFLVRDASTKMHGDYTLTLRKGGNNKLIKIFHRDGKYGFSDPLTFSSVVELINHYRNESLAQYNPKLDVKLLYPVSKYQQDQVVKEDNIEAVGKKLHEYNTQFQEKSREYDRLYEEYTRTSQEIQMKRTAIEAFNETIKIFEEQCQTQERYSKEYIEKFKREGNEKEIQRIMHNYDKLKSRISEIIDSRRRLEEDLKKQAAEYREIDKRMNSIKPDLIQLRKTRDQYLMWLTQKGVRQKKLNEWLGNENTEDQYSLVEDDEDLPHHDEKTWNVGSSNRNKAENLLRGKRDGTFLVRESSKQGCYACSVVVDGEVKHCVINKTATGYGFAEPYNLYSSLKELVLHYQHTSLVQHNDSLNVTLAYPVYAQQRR
Experiment: PI3Kα cellular assay: pAKT HTRF in T47D cells after EGF stimulation
Type: cell-based
Details: T47D cells (PI3Kα H1047R), pAKT S473 HTRF, EGF stimulation
Description: SKBR3 or T47D cells are seeded in DMEM containing 10% FBS at 25k cells/well into 96-well cell culture format. […] 384 well plate is left overnight at room temperature before reading HTRF on an Envision plate reader. ND denotes value not determined with that assay for the specified compound; • for T47D (H1047R) selectivity over SKBR3 (WT): A denotes >20-fold; B denotes 20-fold≥value>5-fold; C denotes ≤5-fold. […] ND denotes value not determined with that assay for the specified compound.
pIC50: −log10 of the molar value.
quantity.kind: pIC50

compound	reported.value
Cc1cc([C@@H](C)Nc2ccccc2C(=O)O)c2nc(-c3ccc4c(c(N)nn4C)c3C)c(C)c(=O)n2c1	< 5.70
Cc1cc([C@H](C)Nc2ccccc2C(N)=O)c2nc(-c3ccc4c(C)cn(C)c4c3)c(C)c(=O)n2c1	< 5.70

Return pIC50 (reported value) for this compound: Cc1cc([C@@H](C)Nc2ccccc2C(=O)O)c2nc(-c3ccc4[nH]c(=O)sc4c3)c(C)c(=O)n2c1 > 7.00

Identify measured pIC50 corresponding to Cc1cc([C@H](C)Nc2ccccc2C(=O)O)c2nc(-c3cnc(C4CCOCC4)nc3)c(C)c(=O)n2c1 < 5.70

Respond only with pIC50 recorded for Cc1cc([C@H](C)Nc2ccccc2-c2ccnnc2)c2nc(-c3ccc4c(C)nn(C5CC5)c4c3)c(C)c(=O)n2c1 5.70 to 6.30

Identify measured pIC50 corresponding to Cc1cc(C(C)Nc2ccccc2)c2nc(N3Cc4ccccc4C3)c(C)c(=O)n2c1 (stereo not drawn) < 5.70

Quick one: give measured pIC50 for Cc1cc(C(C)Nc2ccccc2C(=O)O)c2nc(-c3c(C)ccc4[nH]ncc34)c(C)c(=O)n2c1 (stereo not drawn) < 5.70

* * *

biological target: PI3Kα H1047R (T47D cells) (Homo sapiens, UniProt P42336, H1047R); construct: endogenous in cells; host or cells: T47D cells; assay: PI3Kα cellular assay: pAKT HTRF in T47D cells after EGF stimulation; type: cell-based; conditions: selectivity of T47D (H1047R) over SKBR3 (WT) pAKT IC50
quantity.kind: T47D pAKT S473 HTRF IC50 (H1047R): T47D (H1047R) selectivity over SKBR3 (WT)

compound	study.target	reported.value
Cc1cc([C@@H](C)Nc2ccccc2C(=O)O)c2nc(-c3cnc4c(c3)c(C)nn4C)cc(=O)n2c1 (single isomer, unassigned)	PI3Kα H1047R (T47D cells) (Homo sapiens, UniProt P42336, H1047R)	A (A denotes >20-fold)
Cc1cc([C@H](C)Nc2ccccc2C(=O)C(F)(F)F)c2nc(N3Cc4ccccc4C3)c(C)c(=O)n2c1	PI3Kα H1047R (T47D cells) (Homo sapiens, UniProt P42336, H1047R)	C (C denotes ≤5-fold)
Cc1cc([C@@H](C)Nc2ccccc2S(N)(=O)=O)c2nc(N3C[C@@H](C)O[C@@H](C)C3)cc(=O)n2c1 (single isomer, unassigned)	PI3Kα H1047R (T47D cells) (Homo sapiens, UniProt P42336, H1047R)	A (A denotes >20-fold)
Cc1cc([C@@H](C)Nc2ccccc2C(=O)O)c2nc(-c3ccc4c(c3)c(C)nn4C3CC3)c(C)c(=O)n2c1 (single isomer, unassigned)	PI3Kα H1047R (T47D cells) (Homo sapiens, UniProt P42336, H1047R)	A (A denotes >20-fold)
CC(=O)c1ccc(-c2cc(=O)n3cc(C)cc([C@H](C)Nc4ccccc4C(=O)O)c3n2)cc1	PI3Kα H1047R (T47D cells) (Homo sapiens, UniProt P42336, H1047R)	C (C denotes ≤5-fold)

Next up:
Fill in reported T47D pAKT S473 HTRF IC50 (H1047R): T47D (H1047R) selectivity over SKBR3 (WT) for this entry: Cc1cc([C@@H](C)Nc2ccccc2C(=O)O)c2nc(-c3ccc4c(c3)CC(F)(F)C4)cc(=O)n2c1 A (A denotes >20-fold)

* * *

target: PI3Kα H1047R (T47D cells) (Homo sapiens, UniProt P42336, H1047R); construct: endogenous in cells; host or cells: T47D cells; assay: PI3Kα cellular assay: pAKT HTRF in T47D cells after EGF stimulation; assay type: cell-based; conditions: selectivity T47D (H1047R) over SKBR3 (WT), pAKT HTRF
quantity.kind: T47D pAKT S473 HTRF IC50 (H1047R): T47D (H1047R) selectivity over SKBR3 (WT)

// solved cases for T47D pAKT S473 HTRF IC50 (H1047R): T47D (H1047R) selectivity over SKBR3 (WT) follow
compound	reported.value
Cc1cc([C@@H](C)Nc2ccccc2C(=O)O)c2cc(-c3ccncn3)cc(=O)n2c1 [Compound 481]	C (C denotes ≤5-fold)
Cc1cc([C@H](C)Nc2ccccc2C(=O)O)c2nc(-c3ccc(-c4ccc5oc(=O)n(C)c5c4)c(C)c3)c(C)c(=O)n2c1 [Compound 1276]	C (C denotes ≤5-fold)
Cc1cc([C@@H](C)Nc2ccccc2C(=O)O)c2nc(-c3ccc4c(c3)NC(=O)C4)cc(=O)n2c1 [Compound 575]	A (A denotes >20-fold)
Cc1cc(C(C)Nc2ccccc2C(=O)O)c2nc(-c3ccc4[nH]nc(-c5ccccn5)c4c3)cc(=O)n2c1 (stereo not shown) [Compound 304]	C (C denotes ≤5-fold)
Cc1cc(C(C)Nc2ccccc2S(N)(=O)=O)c2nc(-c3cccnc3)c(C3CC3)c(=O)n2c1 (stereo not shown) [Compound 1261]	A (A denotes >20-fold)

Item Cc1cc(C(C)Nc2ccccc2S(N)(=O)=O)c2nc(N3CCOCC3)cc(=O)n2c1 (stereo not shown) [Compound 151] : provide T47D pAKT S473 HTRF IC50 (H1047R): T47D (H1047R) selectivity over SKBR3 (WT) C (C denotes ≤5-fold)

Recall and state the measured T47D pAKT S473 HTRF IC50 (H1047R): T47D (H1047R) selectivity over SKBR3 (WT) for Cc1cc([C@H](C)Nc2ccccc2S(N)(=O)=O)c2nc(-c3ccc(F)cc3)cc(=O)n2c1 [Compound 587] . C (C denotes ≤5-fold)

* * *

molecular target: PI3Kα H1047R (T47D cells) (Homo sapiens, UniProt P42336, H1047R); construct: endogenous in cells; host or cells: T47D cells; test: PI3Kα cellular assay: pAKT HTRF in T47D cells after EGF stimulation; type: cell-based; details: T47D cells (PI3Kα H1047R), pAKT S473 HTRF, EGF stimulation
quantity.kind: IC50

Some molecules with recorded IC50:
molecule	IC50
CC(Nc1ccccc1C(=O)O)c1cc(C(F)(F)F)cn2c(=O)cc(N3Cc4ccccc4C3)nc12 (stereo not shown) [Compound 921]	> 2000 nM
Cc1cc([C@@H](C)Nc2cccc3c2OCC(=O)N3)c2nc(N3CCOCC3)cc(=O)n2c1	> 2000 nM
Cc1cc([C@@H](C)Nc2ccccc2C(=O)O)c2nc(-c3cnc4c(c3)c(C)nn4C)c(C)c(=O)n2c1	< 100 nM

Answer with IC50 of Cc1cc(C(C)Nc2ccccc2C(=O)O)c2nc(-n3cnc4ccc(O)cc43)cc(=O)n2c1 (stereo not shown) [Compound 799] measured for PI3Kα H1047R (T47D cells) (Homo sapiens, UniProt P42336, H1047R). > 2000 nM

* * *

Biological target: PI3Kα H1047R (T47D cells) (Homo sapiens, UniProt P42336, H1047R)
Construct: endogenous in cells; host or cells: T47D cells
Experiment: PI3Kα cellular assay: pAKT HTRF in T47D cells after EGF stimulation
Format: cell-based
Conditions: selectivity T47D (H1047R) over SKBR3 (WT), pAKT HTRF
Protocol: SKBR3 or T47D cells are seeded in DMEM containing 10% FBS at 25k cells/well into 96-well cell culture format. […] 384 well plate is left overnight at room temperature before reading HTRF on an Envision plate reader. ND denotes value not determined with that assay for the specified compound; • for T47D (H1047R) selectivity over SKBR3 (WT): A denotes >20-fold; B denotes 20-fold≥value>5-fold; C denotes ≤5-fold. […] ND denotes value not determined with that assay for the specified compound.
quantity.kind: T47D pAKT S473 HTRF IC50 (H1047R): T47D (H1047R) selectivity over SKBR3 (WT)

Worked cases, T47D pAKT S473 HTRF IC50 (H1047R): T47D (H1047R) selectivity over SKBR3 (WT) given:
compound	study.target	reported.value
Cc1cc([C@H](C)Nc2ccccc2C(=O)O)c2nc(-c3ccc(C4CN(C)C4)nc3)c(C)c(=O)n2c1	PI3Kα H1047R (T47D cells) (Homo sapiens, UniProt P42336, H1047R)	C (C denotes ≤5-fold)
Cc1cc([C@H](C)Nc2cccc3onc(O)c23)c2nc(-c3ccccc3)c(C)c(=O)n2c1	PI3Kα H1047R (T47D cells) (Homo sapiens, UniProt P42336, H1047R)	C (C denotes ≤5-fold)
Cc1cc(C(C)Nc2ccccc2S(N)(=O)=O)c2nc(-c3ccc(C4CNC4)nc3)c(C)c(=O)n2c1.O=C(O)C(F)(F)F (stereo not shown)	PI3Kα H1047R (T47D cells) (Homo sapiens, UniProt P42336, H1047R)	C (C denotes ≤5-fold)
Cc1cc([C@@H](C)Nc2ccccc2C(=O)O)c2nc(-c3ccnc(C)n3)c(C)c(=O)n2c1	PI3Kα H1047R (T47D cells) (Homo sapiens, UniProt P42336, H1047R)	C (C denotes ≤5-fold)

Next, consider the following compound.
Answer briefly: T47D pAKT S473 HTRF IC50 (H1047R): T47D (H1047R) selectivity over SKBR3 (WT) recorded on PI3Kα H1047R (T47D cells) (Homo sapiens, UniProt P42336, H1047R) for Cc1cc([C@@H](C)Nc2ccccc2C(=O)NS(=O)(=O)N(C)C)c2nc(-c3cccc(F)c3)c(C)c(=O)n2c1 C (C denotes ≤5-fold)
